- Target of assay: T1, phosphorylated Tau fragment Ser-Ile-Asp-Met-Val-Asp-Ser(PO3H2)-Pro-Gln-Leu-Ala-Thr-Leu-Ala-Asp (SEQ ID NO:9) (human, also: biotin attached through 1x epsilon-lysine and 4x beta-alanine, site not given here)
- T1 construct: also called Tau (416-430)[pS422]; Tau phosphopeptide
- T1 peptide: SIDMVD[pS]PQLATLAD
- Procedure summary: ELISA, ratio of EC50 values on the two peptides
Square brackets hold non-standard residues; d marks the D form. Ends that are not written are not given here. pS = N[C@@H](COP(=O)(O)O)C(=O)O
Endpoint label: selectivity compared to non-phosphorylated Tau peptide

[in] Would you kindly share the measured selectivity compared to non-phosphorylated Tau peptide for anti-Tau pS422 antibody Mab 005 (antibody, V domains shown, Rabbit monoclonal antibody, recombinantly expressed in HEK293 with rabbit kappa and gamma constant regions) VH: QSVEESGGRLVTPGTPLTLTCTVSGLSLSSNAINWVRQAPGKGLEWIGYISTSGNTYYASWAKGRFTISKTSTTVDLKITSPTTEDTATYFCGRGDLWGPGTLVTVSS VL: QVLTQTASPVSAAVGSTVTINCQASQSVYKNNYLAWFQQKPGQPPKRLIYSASTLASGVSSRFKGSGSGTQFTLTISDVQCDDAATYYCLGSCDSSSNNCVAFGGGTEVVVK ?
[out] ≥ 100 fold
